FYI, the data here is from patent US10370653B2.

biological target: fluorescently labeled phosphate-binding protein (PBP) from E. coli (Life Technologies, PV4406) (Escherichia coli, UniProt P0AG82, A222C); settings: inorganic phosphate ([Pi]); two-state binding isotherm; TrisHCl pH 7.6
Sequence (P0AG82 26-346 A222C): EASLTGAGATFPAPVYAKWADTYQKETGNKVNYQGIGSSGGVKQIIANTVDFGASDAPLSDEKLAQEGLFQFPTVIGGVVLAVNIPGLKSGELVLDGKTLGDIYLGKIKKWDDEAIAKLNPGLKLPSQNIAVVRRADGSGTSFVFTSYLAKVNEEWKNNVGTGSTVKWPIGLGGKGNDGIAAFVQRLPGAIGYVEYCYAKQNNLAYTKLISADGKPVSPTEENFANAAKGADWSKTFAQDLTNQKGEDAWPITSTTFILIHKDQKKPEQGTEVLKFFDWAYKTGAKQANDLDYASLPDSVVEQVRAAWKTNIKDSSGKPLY
pKd: −log10 of the molar value.

>  <COMPOUND>
O=P(O)(O)O [inorganic phosphate]

>  <pKd>
6.03

$$$$
